These entries and their values trace back to PubChem BioAssay (NCI).

- Tested on: UO-31 renal
- testSummary: NCI tumour cell line growth inhibition, 48 h
attributeMeasured: TGI

Give the measured TGI of CC(=O)OCCOCNC(=S)N/N=C/c1cc(Br)cs1 .
> 100 µM

State the recorded TGI for this entry: CC(C)=CCN1CC(C)C(=O)Nc2ccccc21 (stereo unspecified)
> 100 µM

Need TGI of Cc1cn(CCCCC2=NCCCN2)c(=O)[nH]c1=O , thanks.
> 31 µM

Entry Nc1nc(O)c2ncn([C@H]3CC[C@@H](CO)O3)c2n1 : reported TGI = ?
> 100 µM

Given Cc1ccc(/C(C#N)=C/c2cccc([N+](=O)[O-])c2)cc1 , state its recorded TGI.
> 100 µM

Quick one: TGI for CCOC(=O)CNC(=O)C(CSC(=O)N(O)c1ccc(Cl)cc1)NC(=O)CCC(N)C(=O)OCC (stereo unspecified) ?
> 50 µM

---

- System: IGROV1 ovarian
- testSummary: NCI tumour cell line growth inhibition, 48 h
What TGI was measured for each of the following?

// query TGI value for entry c1ccc2oc(-c3ccc(-c4nc5ccccc5o4)c4c3CC4)nc2c1
> 100 µM

Could you share which TGI value was measured for O=[N+]([O-])c1ccc(-c2nc3ccc(Cl)cc3[nH]2)cc1 ?
> 100 µM

// query TGI value for entry CC1(C)CNCC(C)(OCc2ccccc2)C(=O)NC(C)(C)CNCC(C)(OCc2ccccc2)C(=O)N1 (configuration not stated)
> 10 µM

What TGI value was documented for this compound, CC(=O)Oc1ccc(/C=C/C(=O)OCCCOC(=O)/C=C/c2ccc(OC(C)=O)c(OC(C)=O)c2)cc1OC(C)=O ?
> 100 µM

I'd like to know its TGI. The compound in question is Nc1ccc2c(c1)nc1n2C(c2c(F)cccc2F)SC1 (configuration not stated)
> 100 µM

Data request, read-out TGI, for COc1ccc(OC)c(CNc2ccc(C(=O)O)cc2)c1
> 100 µM

Report TGI for COc1ccc(Oc2cccc(C3C4C(=O)N(c5ccc(C)c(Cl)c5)C(=O)C4ON3C(C(N)=O)c3ccccc3)c2)cc1 (configuration not stated) please.
> 50 µM

Which TGI reading was recorded for the compound CC1(C)CC(=O)C2=C(C1)OC(N)=C(c1nc(-c3ccccc3)cs1)C2c1ccc(Br)cc1 (configuration not stated) ?
> 150 µg/mL

Fill in: TGI of CCOC(=O)/C=C/CCO[Si](C)(C)C(C)(C)C is ___
> 100 µM

So what does the record say about TGI for COc1ccc(CCC2c3cc(OC)c(OC)cc3CCN2C)cc1OC (configuration not stated) ?
> 100 µM

I would be grateful if you could share the reported TGI for CCCCC1(C)C=C/C(=C2/C(=O)O/C(=C\C(=O)O)C2=O)O1 (configuration not stated) .
> 100 µM

State the recorded TGI for this entry: C/C(=C\c1cnc(C)s1)[C@@H]1C[C@@H]2O[C@@H]2CCC[C@H](C)[C@H](O)[C@@H](C)C(=O)C(C)(C)[C@@H](O)CC(=O)O1
> 100 µM

---

Give measured TGI for each item. Keep answers brief.
- System: CCRF-CEM leukemia
- testSummary: NCI tumour cell line growth inhibition, 48 h

Report TGI for [N-]=[N+]=NI1OC(=O)c2ccccc21 please.
> 100 µM

Dear colleague, I am looking for the recorded TGI of the following compound: N#Cc1c2c(c(N)oc1=O)C(c1ccccc1)CC(=O)N2 (stereo unspecified)
> 100 µM

Name the reported TGI value associated with the compound CCOC(=O)NNC(=O)NCc1cccc(CNC(=O)NNC(=O)OCC)c1
> 100 µM

# input compound: C=C1CCC2[C@@H](CCC3[C@]2(C)CCC[C@]3(C)C(=O)OC)C1CC=O (stereo partly specified) ; wanted: its TGI
35.2 µM

Which TGI reading was recorded for the compound Oc1[nH]c2ccccc2c1N=NC(=S)Nc1ccccc1Cl ?
49.9 µM

Using the record for Cn1c(-c2ccccc2)cc(-c2cccs2)c1-c1cccs1 , report its TGI.
> 100 µM

---

Field: GI50. Provide a value for each of the molecules that follow.
- Tested on: A549 NSCLC
- testSummary: NCI tumour cell line growth inhibition, 48 h

So what does the record say about GI50 for COC(=O)CCCCC(=O)c1c(C)[nH]c(/C=C2\N=C(c3ccc[nH]3)C=C2OC)c1C ?
1250 nM

# input molecule: N#CCN1CCn2c1nsc2=S ; wanted: its GI50
> 100000 nM

Query: GI50; subject: COc1cc2nc(-c3cc(F)ccc3O)nc(N[C@@H]3CNC[C@H]3C(C)(C)O)c2cc1OC
1740 nM

What value of GI50 has been reported for the following molecule? COC(=O)[C@H]1CCCN1C(=O)[C@H]1CCCN1C(=O)[C@@H](Cc1c[nH]c2ccccc12)NC(=S)Nc1cc(C(F)(F)F)cc(C(F)(F)F)c1
1830 nM

// query GI50 value for entry COC1=C(OC)C(=O)C(SC/C=C(\C)CCCC(C)CCCC(C)CCCC(C)C)=CC1=O (stereo not given)
2830 nM

---

- Test system: HL-60(TB) leukemia
- testSummary: NCI tumour cell line growth inhibition, 48 h; in the data active = GI50 below about 0.43 µM; inactive = the rest
Thanks in advance; please answer with one of these: t = active, f = inactive

Assay result, entry Cc1cccc2c3c(sc12)C(c1ccc(Cl)cc1)C(C#N)=C(N)O3 (centres undefined) — outcome?
t

Please let me know the test result on file for COC(=O)[C@H]1CCCN1C(=O)[C@H]1CCCN1C(=O)[C@@H](Cc1c[nH]c2ccccc12)NC(=S)Nc1cc(C(F)(F)F)cc(C(F)(F)F)c1 .
f

Each molecule tested received a call. Report the one for CSc1nc2sc3c(c2c(=O)n1-c1ccc(C(C)C)cc1)CCC(=O)C3 .
f

Recorded test call requested for N#CC1=C(/N=C/c2ccccc2)Oc2c(ccc3ccccc23)C1c1ccccc1 (centres undefined)
t

---

- Tested on: OVCAR-8 ovarian
- testSummary: NCI tumour cell line growth inhibition, 48 h
attributeMeasured: TGI

Consider the molecule CC(=O)OCC(=O)O[C@@H]1[C@H]2[C@@H](OC(=O)c3ccccc3)[C@@H](C)C[C@]2(O)[C@H](OC(C)=O)[C@@]2(C)C(OC(C)=O)[C@]1(OC(C)=O)C[C@H]1C(=O)C(C)(C)C[C@@H]12 (stereo partly specified) and give its measured TGI.
> 50 µM

Query: TGI; subject: Oc1c(I)cc(I)c2cccnc12
47.1 µM

Can you share its TGI? I mean this molecule: Oc1ccc2cc(Br)ccc2c1-c1c(O)ccc2ccc(Br)cc12
30.4 µM

Would you mind telling me what TGI value was observed for COc1cc2c(cc1OC)-c1ncc3c(OC)c(OC)c(OC)cc3c1C2 ?
38.5 µM

Return reported TGI; argument: Cc1nc2ccc(C(F)(F)F)cc2nc1NCc1ccc(Cl)c(Cl)c1
33.2 µM

What value of TGI has been reported for the following molecule? O=C(/C=C/c1ccc(Oc2cc(C(=O)/C=C/c3ccc(O)cc3)c(O)cc2O)cc1)c1ccc(O)cc1O
6.09 µM

Returns the measured TGI for the input molecule. Input: Oc1cccc2ccc(N/N=C/c3cc(CN4CCOCC4)c(O)c4ncccc34)nc12
2.09 µM

Quick one: TGI of COc1cc(O)c2c(=O)c(O)c(-c3ccc(O)c(OC)c3)oc2c1 ?
> 100 µM

TGI for Cc1cc(N(CCC#N)CCC#N)ccc1/C(N=Nc1cccc(Cl)c1)=N/NC(=O)c1cc(Cl)ccc1O ?
49.2 µM

Give the measured TGI of COc1ccc2c(c1)c1c(n2CCN(C)C)-c2ccccc2CC1 .
31.1 µM

// query TGI value for entry C[N+](C)(C)CC1CCCC1=O (stereo unspecified)
4.99 µM

Any idea what its TGI is? The molecule is c1ccc(CCc2cccnc2)nc1
> 100 µM

I'd like to know its TGI. The molecule in question is COc1ncnc(NS(=O)(=O)c2ccc(N=C3C(=O)N(CN4CCN(c5c(F)cc6c(=O)c(C(=O)O)cn(C7CC7)c6c5OC)CC4C)c4ccc(Br)cc43)cc2)c1OC (stereo unspecified)
> 50 µM

Which TGI value is on record for CCCCC1(C)C=C/C(=C2/C(=O)O/C(=C\C(=O)O)C2=O)O1 (stereo unspecified) ?
> 100 µM

Looking for the measured TGI of CON(C)c1nc(N(C)OC)nc(N(C)OC)n1 , can you help?
> 10 µM

Suppose we examine the molecule CCCC1CCC(=C2C(=O)CCC2=O)O1 (stereo unspecified) ; what TGI value has been reported?
> 100 µM

Need TGI, item C/C(=C\CBr)CCC(Br)C(C)(C)Cl (stereo unspecified)
> 100 µM

For the molecule shown here, N#CCN1CCn2c1nsc2=S , give the reported TGI.
> 100 µM

For the molecule Cc1nc(C(=O)O)c2ccccc2n1 , what TGI is on record?
> 100 µM

Which TGI is reported for this molecule? O=[N+]([O-])/C(C(Cl)=C(Cl)Cl)=C(/Cl)SCc1ccccc1
3.04 µM

// lookup TGI for N#Cc1nc(-c2ccco2)oc1N
> 10 µM

Consider the molecule COc1ccc(NC(=O)C2CCC(CNS(=O)(=O)c3ccccc3)CC2)cc1OC (stereo unspecified) and give its measured TGI.
> 100 µM

Using the record for Nc1c([N+](=O)[O-])nc(Cl)c2nncn12 , report its TGI.
> 100 µM

For the molecule shown here, CCOC(=O)C1(F)S(=O)(=O)OCCOS1(=O)=O , give the reported TGI.
> 100 µM

Which value of TGI has been reported for CC1(C)CC[C@]2(C)CC[C@]3(C)C(=CC[C@@H]4[C@@]5(C)CCC(=O)C(C)(C)[C@@H]5[C@H](O)C[C@]43C)[C@@H]2C1 in the records?
34.3 µM

# input molecule: N#Cc1ccc(C=NC23CC4CC(CC(C4)C2)C3)cc1 ; wanted: its TGI
> 100 µM
